target: human α1H T-type channels (Homo sapiens, UniProt O95180); construct: expressed in transfected cells; host or cells: HEK 293; assay: T-type calcium channel block, whole cell patch clamp in HEK cells (α1H); format: cell-based; settings: HEK cells, patch clamp, mainly non-inactivated protocol; values above 10 μM shown as 10 μM; read-out: T-type Calcium Channel Block α1H IC50
Sequence (O95180 whole entry): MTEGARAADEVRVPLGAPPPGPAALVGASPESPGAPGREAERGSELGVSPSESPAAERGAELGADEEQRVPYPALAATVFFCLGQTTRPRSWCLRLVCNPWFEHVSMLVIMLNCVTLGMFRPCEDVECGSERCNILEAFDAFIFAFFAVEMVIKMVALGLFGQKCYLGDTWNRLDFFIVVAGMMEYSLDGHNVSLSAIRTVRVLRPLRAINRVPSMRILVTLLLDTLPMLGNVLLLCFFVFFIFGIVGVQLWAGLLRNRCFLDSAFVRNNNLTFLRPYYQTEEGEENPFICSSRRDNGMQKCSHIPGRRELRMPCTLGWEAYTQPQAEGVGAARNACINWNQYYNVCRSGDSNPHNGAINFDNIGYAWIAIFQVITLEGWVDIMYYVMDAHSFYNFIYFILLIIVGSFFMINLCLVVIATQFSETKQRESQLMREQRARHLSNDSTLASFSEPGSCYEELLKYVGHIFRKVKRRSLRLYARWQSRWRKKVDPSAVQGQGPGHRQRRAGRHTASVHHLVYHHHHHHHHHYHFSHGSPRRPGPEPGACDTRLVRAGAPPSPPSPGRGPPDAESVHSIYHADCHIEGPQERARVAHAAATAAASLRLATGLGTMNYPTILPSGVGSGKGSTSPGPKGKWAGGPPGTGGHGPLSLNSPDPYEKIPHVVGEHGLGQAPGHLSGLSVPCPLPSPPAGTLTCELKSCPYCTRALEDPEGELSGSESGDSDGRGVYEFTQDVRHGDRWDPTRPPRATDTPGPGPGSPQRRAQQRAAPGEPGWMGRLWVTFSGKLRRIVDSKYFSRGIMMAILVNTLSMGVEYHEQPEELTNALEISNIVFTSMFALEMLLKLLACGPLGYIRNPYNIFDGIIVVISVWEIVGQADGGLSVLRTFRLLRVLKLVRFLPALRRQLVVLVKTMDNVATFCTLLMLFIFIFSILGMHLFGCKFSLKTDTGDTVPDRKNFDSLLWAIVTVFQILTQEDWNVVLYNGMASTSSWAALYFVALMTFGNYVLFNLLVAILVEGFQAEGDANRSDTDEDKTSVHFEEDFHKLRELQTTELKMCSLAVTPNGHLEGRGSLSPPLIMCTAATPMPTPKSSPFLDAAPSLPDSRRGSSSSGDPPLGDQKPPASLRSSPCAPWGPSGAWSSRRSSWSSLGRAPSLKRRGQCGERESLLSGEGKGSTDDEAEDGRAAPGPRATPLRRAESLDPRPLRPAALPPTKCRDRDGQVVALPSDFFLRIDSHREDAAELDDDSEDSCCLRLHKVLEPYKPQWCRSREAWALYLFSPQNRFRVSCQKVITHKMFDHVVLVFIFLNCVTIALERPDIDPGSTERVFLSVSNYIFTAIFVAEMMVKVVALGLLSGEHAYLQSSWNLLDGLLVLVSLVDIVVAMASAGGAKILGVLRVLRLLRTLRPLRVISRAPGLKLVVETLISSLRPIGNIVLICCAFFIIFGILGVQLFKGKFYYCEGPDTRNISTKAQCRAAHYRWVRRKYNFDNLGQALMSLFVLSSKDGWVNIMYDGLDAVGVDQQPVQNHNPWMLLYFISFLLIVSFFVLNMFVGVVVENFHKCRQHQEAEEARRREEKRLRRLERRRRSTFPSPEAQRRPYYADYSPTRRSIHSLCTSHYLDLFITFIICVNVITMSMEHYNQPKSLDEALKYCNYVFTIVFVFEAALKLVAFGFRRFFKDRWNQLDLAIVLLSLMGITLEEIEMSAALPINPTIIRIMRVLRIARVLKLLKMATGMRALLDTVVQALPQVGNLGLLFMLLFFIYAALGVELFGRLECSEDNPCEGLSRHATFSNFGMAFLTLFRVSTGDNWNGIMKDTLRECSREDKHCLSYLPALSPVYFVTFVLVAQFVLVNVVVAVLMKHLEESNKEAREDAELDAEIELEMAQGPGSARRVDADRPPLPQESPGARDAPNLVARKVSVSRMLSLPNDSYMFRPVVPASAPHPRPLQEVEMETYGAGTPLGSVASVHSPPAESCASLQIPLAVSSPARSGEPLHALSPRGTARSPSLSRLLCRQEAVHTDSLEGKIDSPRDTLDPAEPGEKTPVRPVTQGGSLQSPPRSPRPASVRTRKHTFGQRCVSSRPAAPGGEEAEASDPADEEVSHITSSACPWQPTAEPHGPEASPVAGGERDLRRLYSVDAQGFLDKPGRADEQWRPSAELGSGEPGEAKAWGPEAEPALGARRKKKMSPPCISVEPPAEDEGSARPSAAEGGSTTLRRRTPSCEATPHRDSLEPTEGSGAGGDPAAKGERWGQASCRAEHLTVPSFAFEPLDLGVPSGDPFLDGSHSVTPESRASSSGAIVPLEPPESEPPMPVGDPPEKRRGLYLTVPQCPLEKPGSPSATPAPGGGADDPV
Output T for records whose IC50 is lower than 400 nM, F for records at or above 400 nM.

Cc1cc(C)cc(C(=O)NCC2CCN(CC(=O)NC(C)C)CC2)c1
F
O=C(CN1CCC(CNC(=O)c2cc(C(F)(F)F)cc(C(F)(F)F)c2)CC1)N[C@H]1CC[C@H](O)CC1
F
CCCNC(=O)CN1CCC(CNC(=O)c2cc(C)cc(C)c2)CC1
F

Q: Dear reviewer, please state whether `CC(C)(C)C(=O)NCCN1CCC(CNC(=O)c2cc(Cl)cc(C(F)(F)F)c2)CC1` has IC50 strictly beneath 400 nM.
Ans: F

Q: Dear reviewer, please state whether `CN(C(=O)CN1CCC(CNC(=O)c2cc(Cl)cc(Cl)c2)CC1)C1(C)CCC1` has IC50 strictly beneath 400 nM.
Ans: T

----------
target: human α1H T-type channels (Homo sapiens); construct: expressed in transfected cells; host or cells: HEK 293; assay: T-type calcium channel block, whole cell patch clamp in HEK cells (α1H); format: cell-based; settings: HEK cells, patch clamp, mainly non-inactivated protocol; values above 10 μM shown as 10 μM; read-out: T-type Calcium Channel Block α1H IC50
pIC50: −log10 of the molar value.
Recorded endpoint: pIC50

Cc1cc(F)cc(C(=O)NCC2CCN(CC(=O)NC(C)C)CC2)c1
< 5.00

Please look at the items below and tell me pIC50 for each one, in order.
1. CCCNC(=O)CN1CCC(CNC(=O)c2cccc(Br)c2)CC1
2. CC(C)S(=O)(=O)NC(CN1CCC(CC(=O)NC(c2cccc(F)c2)c2cccc(F)c2)CC1)C(C)(C)C (stereo not shown)
3. O=C(NCC1CCN(CCN2CCCC2=O)CC1)c1cc(F)cc(C(F)(F)F)c1

Ans:
1: < 5.00; 2: < 5.00; 3: < 5.00

----------
Could you please report measured IC50 for the items listed next?
Target: human α1H T-type channels (Homo sapiens)
Construct: expressed in transfected cells; host or cells: HEK 293
Experiment: T-type calcium channel block, whole cell patch clamp in HEK cells (α1H)
Assay type: cell-based
Conditions: HEK cells, patch clamp, mainly non-inactivated protocol; values above 10 μM shown as 10 μM; read-out: T-type Calcium Channel Block α1H IC50
Description: T-type calcium channel blocking activity was assayed in human embryonic kidney cells, HEK 293, stably transfected with the T-type calcium channel subunits. […] Standard patch-clamp techniques were employed to identify blockers of T-type currents. […] Data were analyzed using Clampfit (Axon Instruments) and SigmaPlot 4.0 (Jandel Scientific). […]
Answers are plain numbers, in µM.

Some compounds with known IC50 results, for comparison:
Cc1cc(C)cc(C(=O)NCC2CCN(CCNC(=O)CCC(F)(F)F)CC2)c1
0.75
COc1cc(F)cc(C(=O)NCC2CCN(CC(=O)NC3(C4CCOCC4)CC3)CC2)c1
0.66

For the next question, use this compound.
Q: Give the value of IC50 reported for the following: `O=C(NCC1CCN(CCNS(=O)(=O)CCCF)CC1)c1cc(F)cc(C(F)(F)F)c1`
Ans: 0.88

----------
biological target: human α1H T-type channels (Homo sapiens, UniProt O95180); construct: expressed in transfected cells; host or cells: HEK 293; assay: T-type calcium channel block, whole cell patch clamp in HEK cells (α1H); assay type: cell-based; conditions: HEK cells, patch clamp, mainly non-inactivated protocol; values above 10 μM shown as 10 μM; read-out: T-type Calcium Channel Block α1H IC50
Could you please report measured IC50 for the items listed next?

Some compounds with known IC50 results, for comparison:
O=C(NCC1CCN(C(=O)CN2CC[C@@H](O)C2)CC1)c1cc(C(F)(F)F)cc(C(F)(F)F)c1
> 10 µM
CC(C)(C)N/C(CN1CCC(CNC(=O)c2cc(F)cc(C(F)(F)F)c2)CC1)=N\C#N
> 10 µM

For the next question, use this compound.
Q: Give the value of IC50 reported for the following: `CC(C)(C)Oc1cccc(C(=O)NCC2CCN(CCNS(=O)(=O)C3CC3)CC2)c1`
Ans: > 10 µM

----------
biological target: human α1H T-type channels (Homo sapiens); construct: expressed in transfected cells; host or cells: HEK 293; assay: T-type calcium channel block, whole cell patch clamp in HEK cells (α1H); format: cell-based; conditions: HEK cells, patch clamp, mainly non-inactivated protocol; values above 10 μM shown as 10 μM; read-out: T-type Calcium Channel Block α1H IC50
Could you please report measured IC50 for the items listed next?

CC(C)NC(=O)CN1CCC(CNC(=O)c2cccc(Br)c2)CC1
> 10 µM

Please look at the items below and tell me IC50 for each one, in order.
1. Cc1cc(F)cc(C(=O)NCC2CCN(CCNS(=O)(=O)C(F)(F)F)CC2)c1
2. CC(C)(C)C1CCN(CC(=O)N2CCC(CNC(=O)c3cc(F)cc(C(F)(F)F)c3)CC2)CC1

Ans:
1: > 10 µM; 2: > 10 µM

----------
target: human α1G T-type channels (Homo sapiens, UniProt O43497); construct: expressed in transfected cells; host or cells: HEK 293; test: T-type calcium channel block, whole cell patch clamp in HEK cells (α1G); assay type: cell-based; conditions: HEK cells, patch clamp, mainly non-inactivated protocol; values above 10 μM shown as 10 μM, below 0.30 μM shown as 0.30 μM; read-out: T-type Calcium Channel Block α1G IC50
Sequence (O43497 whole entry): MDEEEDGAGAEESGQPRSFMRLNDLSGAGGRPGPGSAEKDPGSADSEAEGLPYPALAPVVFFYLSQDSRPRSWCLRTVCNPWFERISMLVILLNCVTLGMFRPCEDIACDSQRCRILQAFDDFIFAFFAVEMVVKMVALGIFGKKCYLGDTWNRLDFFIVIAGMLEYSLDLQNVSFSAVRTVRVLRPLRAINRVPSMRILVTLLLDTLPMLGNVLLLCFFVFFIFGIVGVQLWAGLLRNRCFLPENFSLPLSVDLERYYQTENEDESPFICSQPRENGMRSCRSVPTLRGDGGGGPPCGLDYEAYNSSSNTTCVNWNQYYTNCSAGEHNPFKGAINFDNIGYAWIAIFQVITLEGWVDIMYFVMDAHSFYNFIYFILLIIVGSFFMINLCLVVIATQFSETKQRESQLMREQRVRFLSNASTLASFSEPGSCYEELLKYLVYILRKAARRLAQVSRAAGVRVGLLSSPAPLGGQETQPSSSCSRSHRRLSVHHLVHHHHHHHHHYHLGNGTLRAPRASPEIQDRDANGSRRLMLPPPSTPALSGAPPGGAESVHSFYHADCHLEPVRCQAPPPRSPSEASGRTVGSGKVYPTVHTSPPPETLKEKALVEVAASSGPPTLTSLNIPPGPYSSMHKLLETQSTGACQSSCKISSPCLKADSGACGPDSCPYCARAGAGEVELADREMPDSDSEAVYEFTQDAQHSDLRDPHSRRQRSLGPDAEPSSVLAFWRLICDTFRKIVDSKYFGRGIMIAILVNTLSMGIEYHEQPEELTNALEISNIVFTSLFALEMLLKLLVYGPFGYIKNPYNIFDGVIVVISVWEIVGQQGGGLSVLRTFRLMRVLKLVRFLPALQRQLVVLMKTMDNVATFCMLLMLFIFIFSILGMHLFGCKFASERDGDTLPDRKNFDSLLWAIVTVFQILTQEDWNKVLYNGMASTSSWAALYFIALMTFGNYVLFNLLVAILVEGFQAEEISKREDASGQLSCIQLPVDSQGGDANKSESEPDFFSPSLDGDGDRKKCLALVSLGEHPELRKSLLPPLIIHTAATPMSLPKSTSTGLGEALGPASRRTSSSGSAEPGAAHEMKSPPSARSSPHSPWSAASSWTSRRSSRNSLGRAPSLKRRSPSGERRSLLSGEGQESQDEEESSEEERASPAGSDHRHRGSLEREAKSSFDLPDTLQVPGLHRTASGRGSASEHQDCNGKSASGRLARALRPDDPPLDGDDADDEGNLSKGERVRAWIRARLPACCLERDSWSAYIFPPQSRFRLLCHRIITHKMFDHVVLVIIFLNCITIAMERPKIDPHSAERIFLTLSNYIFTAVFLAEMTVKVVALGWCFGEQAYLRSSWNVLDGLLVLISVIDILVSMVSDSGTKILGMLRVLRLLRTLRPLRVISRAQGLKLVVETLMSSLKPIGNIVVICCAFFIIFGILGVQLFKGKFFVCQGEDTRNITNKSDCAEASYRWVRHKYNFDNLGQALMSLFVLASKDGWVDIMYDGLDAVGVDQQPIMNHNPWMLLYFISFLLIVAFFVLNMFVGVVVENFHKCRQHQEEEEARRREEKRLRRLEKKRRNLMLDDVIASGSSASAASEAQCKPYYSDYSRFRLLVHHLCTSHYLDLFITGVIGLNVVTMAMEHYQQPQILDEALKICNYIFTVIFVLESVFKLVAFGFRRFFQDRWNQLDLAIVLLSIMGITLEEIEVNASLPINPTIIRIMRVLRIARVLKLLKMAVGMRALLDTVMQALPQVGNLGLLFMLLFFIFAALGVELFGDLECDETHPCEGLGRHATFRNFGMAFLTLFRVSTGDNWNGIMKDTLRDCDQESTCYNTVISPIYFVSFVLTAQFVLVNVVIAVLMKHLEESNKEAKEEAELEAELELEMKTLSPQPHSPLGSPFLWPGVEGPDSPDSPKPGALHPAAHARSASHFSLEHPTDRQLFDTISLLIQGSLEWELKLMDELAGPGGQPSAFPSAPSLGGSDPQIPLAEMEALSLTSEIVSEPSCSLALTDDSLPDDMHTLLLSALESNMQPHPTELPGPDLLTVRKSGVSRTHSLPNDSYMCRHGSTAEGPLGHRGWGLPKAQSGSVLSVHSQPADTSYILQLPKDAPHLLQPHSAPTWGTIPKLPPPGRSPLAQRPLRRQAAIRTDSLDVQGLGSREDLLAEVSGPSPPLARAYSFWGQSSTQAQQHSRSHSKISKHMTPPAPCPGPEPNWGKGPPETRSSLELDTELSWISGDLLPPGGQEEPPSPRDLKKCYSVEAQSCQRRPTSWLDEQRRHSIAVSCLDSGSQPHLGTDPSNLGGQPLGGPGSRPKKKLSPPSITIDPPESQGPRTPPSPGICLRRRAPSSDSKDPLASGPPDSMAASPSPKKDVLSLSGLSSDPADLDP
pIC50: −log10 of the molar value.
Recorded endpoint: pIC50

Please look at the items below and tell me pIC50 for each one, in order.
1. CC(C)(C)NC(=O)CN1CCC(CNC(=O)c2cc(Br)cc(OC(F)(F)F)c2)CC1
2. COc1cc(C(=O)NCC2CCN(CCNS(=O)(=O)C(F)(F)F)CC2)cc(C(F)(F)F)c1
3. COc1cc(C(=O)NCC2CCN(CCNC(=O)C(C)(C)C)CC2)cc(C(F)(F)F)c1

Ans:
1: > 6.52; 2: > 6.52; 3: > 6.52

----------
Could you please report measured pIC50 for the items listed next?
target: human α1G T-type channels (Homo sapiens); construct: expressed in transfected cells; host or cells: HEK 293; assay: T-type calcium channel block, whole cell patch clamp in HEK cells (α1G); format: cell-based; details: HEK cells, patch clamp, mainly non-inactivated protocol; values above 10 μM shown as 10 μM, below 0.30 μM shown as 0.30 μM; read-out: T-type Calcium Channel Block α1G IC50
pIC50: −log10 of the molar value.

Some molecules with known pIC50 results, for comparison:
CC(C)(C)OC(=O)NCCN1CCC(CNC(=O)c2cccc(S(C)(=O)=O)c2)CC1
< 5.00
O=C(NCC1CCN(CCNC(=O)C2(C(F)(F)F)CCC2)CC1)c1cc(F)cc(C(F)(F)F)c1
> 6.52
O=C(NCC1CCN(C(=O)CNCCCN2CCOCC2)CC1)c1cc(F)cc(C(F)(F)F)c1
< 5.00

Q: Give the value of pIC50 reported for the following: `NC1(C(=O)N2CCC(CC(=O)Nc3cc(C(F)(F)F)cc(C(F)(F)F)c3)CC2)CCOCC1`
Ans: < 5.00

----------
Could you please report measured IC50 for the items listed next?
biological target: human α1H T-type channels (Homo sapiens); construct: expressed in transfected cells; host or cells: HEK 293; assay: T-type calcium channel block, whole cell patch clamp in HEK cells (α1H); assay type: cell-based; details: HEK cells, patch clamp, mainly non-inactivated protocol; values above 10 μM shown as 10 μM; read-out: T-type Calcium Channel Block α1H IC50
One number for each entry, in nM.

Some compounds with known IC50 results, for comparison:
O=C(NCC1CCN(C2CN(C(=O)C3(C(F)(F)F)CC3)C2)CC1)c1cc(F)cc(Cl)c1
3050
CCOC(=O)NC(CN1CCC(CC(=O)NCc2cc(Cl)cc(Cl)c2)CC1)C(C)(C)C (stereo not shown)
6190
CC(C)(C)C(=O)NCCN1CCC(CNC(=O)c2cc(F)cc(Cl)c2)CC1
350
O=C(NCC1CCN(C(=O)CNC2CCCCC2)CC1)c1cc(F)cc(C(F)(F)F)c1
1090
O=C(NCC1CCN(CCNS(=O)(=O)C(F)(F)F)CC1)c1ccc(C(F)(F)F)c(F)c1
1550
CC(C)(C)NC(=O)CN1CCC(CNC(=O)c2cccc(Br)c2)CC1
90

Please look at the items below and tell me IC50 for each one, in order.
1. CC(C)COC(=O)NCCN1CCC(CNC(=O)c2cc(C(F)(F)F)cc(C(F)(F)F)c2)CC1
2. O=C(CCC(F)(F)F)NCCN1CCC(CNC(=O)c2cc(C(F)(F)F)cc(C(F)(F)F)c2)CC1
3. Cc1cc(C)cc(C(=O)NCC2CCN(CCNC(=O)C(C)(C)C(F)(F)F)CC2)c1

Ans:
170
370
130

Origin of measurements: patent US8569344B2
